Biological target: Slo3 (potassium channel subfamily U member 1, KCNU1) (Homo sapiens, UniProt A8MYU2)
Sequence (A8MYU2 whole entry): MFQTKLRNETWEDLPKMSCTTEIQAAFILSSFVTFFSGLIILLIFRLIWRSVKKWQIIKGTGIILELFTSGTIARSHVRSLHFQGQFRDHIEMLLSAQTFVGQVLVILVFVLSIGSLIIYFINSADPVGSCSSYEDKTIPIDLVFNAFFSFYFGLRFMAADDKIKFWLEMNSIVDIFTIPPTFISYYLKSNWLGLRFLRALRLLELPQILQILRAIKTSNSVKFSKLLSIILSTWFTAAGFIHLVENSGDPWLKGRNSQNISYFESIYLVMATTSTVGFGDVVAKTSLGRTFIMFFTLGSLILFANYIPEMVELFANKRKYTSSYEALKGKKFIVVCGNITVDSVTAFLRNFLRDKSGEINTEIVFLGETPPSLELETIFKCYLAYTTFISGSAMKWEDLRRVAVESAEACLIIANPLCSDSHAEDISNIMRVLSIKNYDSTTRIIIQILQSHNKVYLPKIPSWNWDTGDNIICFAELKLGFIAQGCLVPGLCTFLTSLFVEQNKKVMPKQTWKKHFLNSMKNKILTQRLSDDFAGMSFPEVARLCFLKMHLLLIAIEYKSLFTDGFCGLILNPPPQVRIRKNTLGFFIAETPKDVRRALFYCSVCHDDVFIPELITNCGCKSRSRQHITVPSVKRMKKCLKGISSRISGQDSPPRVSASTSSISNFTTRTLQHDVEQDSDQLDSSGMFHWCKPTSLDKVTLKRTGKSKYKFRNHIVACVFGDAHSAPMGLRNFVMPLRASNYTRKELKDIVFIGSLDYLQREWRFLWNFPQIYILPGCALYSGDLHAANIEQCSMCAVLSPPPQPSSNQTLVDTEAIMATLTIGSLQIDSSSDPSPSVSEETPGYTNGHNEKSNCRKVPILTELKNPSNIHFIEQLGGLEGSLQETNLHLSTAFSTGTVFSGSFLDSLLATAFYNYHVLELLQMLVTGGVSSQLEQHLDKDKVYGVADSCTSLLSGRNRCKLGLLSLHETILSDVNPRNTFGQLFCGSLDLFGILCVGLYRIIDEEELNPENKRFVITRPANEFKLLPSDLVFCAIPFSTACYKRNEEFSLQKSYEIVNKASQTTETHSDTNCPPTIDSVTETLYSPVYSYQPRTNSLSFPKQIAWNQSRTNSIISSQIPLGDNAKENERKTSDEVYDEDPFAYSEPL
Sequence (Q8N7C0 24-313 partner): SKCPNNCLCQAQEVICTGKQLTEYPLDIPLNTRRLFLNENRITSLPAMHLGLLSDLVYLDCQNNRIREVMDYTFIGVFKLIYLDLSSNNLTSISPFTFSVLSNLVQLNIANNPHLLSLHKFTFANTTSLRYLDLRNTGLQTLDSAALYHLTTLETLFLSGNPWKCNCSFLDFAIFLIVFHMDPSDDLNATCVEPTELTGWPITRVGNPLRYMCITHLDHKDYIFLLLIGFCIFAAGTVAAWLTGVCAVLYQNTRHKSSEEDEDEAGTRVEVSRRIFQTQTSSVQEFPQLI
Assay: whole-cell patch clamp, HEK293 cells, dose response
Reported property: EC50 (µM)
Number only, in µM; omit the unit.

Reported Slo3 (potassium channel subfamily U member 1, KCNU1) (Homo sapiens, UniProt A8MYU2) EC50 for item O=c1c(O)c(-c2ccc(O)c(O)c2)oc2cc(O)cc(O)c12 was 11.3
